# Assayed target: CXCR7 (Homo sapiens)
# Construct: host or cells: CHO (PathHunter CHO-CXCR7 β-arrestin cells)
# Sequence (P25106 whole entry): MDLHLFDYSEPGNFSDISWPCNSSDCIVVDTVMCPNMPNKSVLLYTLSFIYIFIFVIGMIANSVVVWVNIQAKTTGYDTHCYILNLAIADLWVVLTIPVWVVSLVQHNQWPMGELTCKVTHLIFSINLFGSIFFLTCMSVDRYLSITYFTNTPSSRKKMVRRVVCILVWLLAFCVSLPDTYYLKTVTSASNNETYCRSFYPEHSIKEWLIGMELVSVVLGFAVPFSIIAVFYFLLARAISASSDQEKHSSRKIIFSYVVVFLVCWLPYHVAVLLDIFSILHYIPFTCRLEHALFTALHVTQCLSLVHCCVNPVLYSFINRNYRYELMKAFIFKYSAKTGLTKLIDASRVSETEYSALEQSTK
# Procedure text: CXCR7 β-arrestin recruitment assay (PathHunter CHO-CXCR7, agonistic assay)
# Format: cell-based
# Run conditions: CHO CXCR7 β-arrestin cells, agonistic assay, 90 min at 37° C., chemiluminescence; read-out: β-Arrestin EC50
Square brackets hold non-standard residues; d marks the D form. Peptide text beside a SMILES is read from it. 1Nal = N[C@@H](Cc1cccc2ccccc12)C(=O)O; Tic = O=C(O)[C@@H]1Cc2ccccc2CN1
Recorded metric: pEC50
Quick note: pEC50 means taking -log10 of the concentration in moles per liter.

Example entries begin here.
Compound	pEC50
N=C(N)NCCC[C@@H]1NC(=O)[C@@H](Cc2ccccc2)NC(=O)[C@H](Cc2c[nH]c3ccccc23)NC(=O)[C@@H]2Cc3ccccc3CN2C(=O)[C@H]2CCCN2C(=O)[C@H](CCCNC(=N)N)NC1=O [compound 19, cyclo(-Trp-^DPhe-Arg-Arg-^DPro-Tic-)] (cyclo(RR[dP][Tic]W[dF]))	6.75
CC[C@H](C)[C@@H]1NC(=O)[C@@H](Cc2c[nH]cn2)NC(=O)[C@H](Cc2cccc3ccccc23)NC(=O)[C@@H]2Cc3ccccc3CN2C(=O)[C@H]2CCCN2C(=O)[C@H](CCCNC(=N)N)NC1=O [compound 29, cyclo(-1Nal-^DHis-Ile-Arg-^DPro-Tic-)] (cyclo([1Nal][dH]IR[dP][Tic]))	6.46

Shift focus to the following entry.
pEC50 for N=C(N)NCCC[C@@H]1NC(=O)[C@H](Cc2c[nH]c3ccccc23)NC(=O)[C@@H](Cc2ccccc2)NC(=O)[C@H](Cc2c[nH]c3ccccc23)NC(=O)[C@@H]2Cc3ccccc3CN2C(=O)[C@H]2CCCN2C1=O [compound 9, cyclo(-Trp-^DPhe-Trp-Arg-^DPro-Tic-)] (cyclo(R[dP][Tic]W[dF]W)) is 8.32
